meta.source: PubChem BioAssay (NCI)

System: UACC-257 melanoma
assay_details: NCI tumour cell line growth inhibition, 48 h
measurement_label: TGI (µM)

> print(dat)
                                    compound    target.of.assay  inequality.symbol  assay.value
 1         COc1ccc(CC#C/C=C/C(=O)NCC(C)C)cc1  UACC-257 melanoma                  >          100
 2    Cc1cc(Nc2ccc(S(=O)(=O)O)cc2)c2ccccc2n1  UACC-257 melanoma                  >          100
 3  Cc1cc2c(s1)C(N)CC2=O (configuration not stated)  UACC-257 melanoma                  >          100
 4  CC(C)NCCCC(C)Nc1ccnc2ccc3nn(C)nc3c12 (configuration not stated)  UACC-257 melanoma                  >          100
 5  C/C(=C\COc1cc(O)c2c(c1)C(=O)c1cc(C)cc(O)c1C2=O)CCC1OC1(C)C (configuration not stated)  UACC-257 melanoma                  >          100
 6                 CNCCCCN(C)/[N+]([O-])=N\O  UACC-257 melanoma                  >          100
 7  COC1=CC(=Nc2c(Cl)cc(Cl)cc2OC(=O)c2ccc([N+](=O)[O-])cc2)C=C(OC)C1=O  UACC-257 melanoma                  =         24.2
 8        Cc1nc2ccccn2c1N=Nc1ccc(C(=O)NN)cc1  UACC-257 melanoma                  >          100
 9  CCCCCCCCOCC(CO)OCCCCCCCC (configuration not stated)  UACC-257 melanoma                  =         37.1
10       O=C1Nc2cc(Cl)ccc2C(=O)N2CCC[C@@H]12  UACC-257 melanoma                  >          100
11  O=C1c2[nH]c3ccccc3c2CCN2CCCCC12 (configuration not stated)  UACC-257 melanoma                  =         39.5
12  O=C1C(Cl)C(c2cc3cc(Br)ccc3nc2Cl)N1c1ccc(F)c(Cl)c1 (configuration not stated)  UACC-257 melanoma                  =         25.7
13  CC(=O)OC1C2CCC1C1C2N=NN1c1ccc([N+](=O)[O-])cc1 (configuration not stated)  UACC-257 melanoma                  >          100
14  COc1cc2c(cc1OCCCCCn1c(-c3ccc(OCc4ccccc4)cc3)nc3cc(N4CCOCC4)ccc31)N=C[C@@H]1CCCN1C2=O  UACC-257 melanoma                  =         7.78
15  COc1ccc(-c2cc(-c3ccccc3)nc(SCCCC(=O)NO)n2)cc1OC  UACC-257 melanoma                  =         7.94
16  NCCCCCCCCCCn1c2c(c3ccccc3c1=O)C(=O)c1ccccc1-2  UACC-257 melanoma                  =         44.8
17   CN(C)/C=C1\CCc2ccc([N+](=O)[O-])cc2C1=O  UACC-257 melanoma                  =         38.2
18  O=C1C(Cl)=C(N2CCN(CCOCCO)CC2)C(=O)c2ncccc21  UACC-257 melanoma                  >           10
19  CN(CCCCCl)P(=O)(OCC1=CC(=O)c2ccccc2C1=O)OC[C@H]1O[C@@H](n2cc(F)c(=O)[nH]c2=O)C[C@@H]1O (some centres not stated)  UACC-257 melanoma                  =           24
20  CCC(=O)c1cc(C(=O)C(=S)SC)cc(C(=O)C(=S)SC)c1  UACC-257 melanoma                  >          100
21      Nc1nc(N)c(N=Nc2ccccc2)c(-c2ccccc2)n1  UACC-257 melanoma                  =         35.9
22  CN(C)CCCNC(=O)c1cc2/c(=C\c3ccc(N(C)C)cc3)c3ccccc3n2[n+]1C  UACC-257 melanoma                  =         51.3
